PROTOCOL_DETAILS: A CellTox Green Cytotoxicity Assay to monitor cytotoxicity in HepG2 cells - 32 hour (AID 1224883); also: % is scaled to controls: 0 for no effect and ±100 for the full control effect; nearly all actives have a fitted effect of over 50% in size
ASSAY_CONDITIONS: CellTox Green fluorescence; series mostly up to 76.8 µM
Records with an inconclusive call do not appear. Activity calls are given as the source filed them. Calls follow the shape of the dose curve; as a rule, active = well fitted activation curve with a large enough effect in the repeat runs; inconclusive = weak or mixed curves; inactive = flat fitted curve, though single readings scatter.

# MOLECULE, outcome
measured = [
    ("c1ccc2c(c1)sc1ccccc12", "inactive"),
    ("NCCc1cc(O)c(O)cc1O", "inactive"),
    ("COC(=O)C1(O)c2ccccc2-c2ccccc21", "inactive"),
    ("CC(C)(C#N)C(C)(C)C#N", "inactive"),
    ("O=C(O)CCCOc1ccc(Cl)cc1Cl", "inactive"),
    ("C=CCc1ccccc1O", "inactive"),
    ("O=S(=O)(c1ccccc1)c1ccccc1", "inactive"),
    ("O=C=NC1CCCCC1", "inactive"),
    ("CC(C)C1(C)N=C(c2ncccc2C(=O)O)NC1=O (stereo not given)", "inactive"),
    ("CCSCc1ccccc1OC(=O)NC", "inactive"),
    ("CCC(C)Cl (stereo not given)", "inactive"),
    ("CCCC[N+](CCCC)(CCCC)CCCC", "inactive"),
    ("O=S(=O)(Cl)Cl", "inactive"),
    ("Cc1ccc2c(C)cccc2c1", "inactive"),
    ("CC(C)[C@@H](C(=O)O[C@@H](C#N)c1cccc(Oc2ccccc2)c1)c1ccc(Cl)cc1", "inactive"),
]

* * *

PROTOCOL_DETAILS: A CellTox Green Cytotoxicity Assay to monitor cytotoxicity in HEK293 cells - 24 hour (AID 1224875); also: % is scaled to controls: 0 for no effect and ±100 for the full control effect; nearly all actives have a fitted effect of over 45% in size
ASSAY_CONDITIONS: CellTox Green fluorescence; series mostly up to 76.8 µM
Records with an inconclusive call do not appear. Active and inactive are the calls of the source. Calls follow the shape of the dose curve; as a rule, active = well fitted activation curve with a large enough effect in the repeat runs; inconclusive = weak or mixed curves; inactive = flat fitted curve, though single readings scatter.
QUANTITY: activity change

# COMPOUND, RESULT
rows = [
    ("Cc1nnc(-c2ccccc2)c(=O)n1N", "inactive"),
    ("CNC(=O)Oc1cccc(N=CN(C)C)c1", "inactive"),
    ("COc1ccc(C(=O)c2c(C)n(CCN3CCOCC3)c3ccccc23)cc1", "inactive"),
    ("COc1cc(C[C@@H](C)N)c(OC)cc1Br", "inactive"),
    ("NP(N)(=O)NC(=O)c1ccc(F)cc1", "inactive"),
    ("CCCC[N+]1(C)[C@@H]2CC(OC(=O)[C@H](CO)c3ccccc3)C[C@H]1[C@@H]1O[C@@H]12 (stereo partly specified)", "inactive"),
]

* * *

PROTOCOL_DETAILS: qHTS RealTime-Glo MT Cell Viability Assay in HEK293 cells - 40 hour (AID 1224874); also: % is scaled to controls: 0 for no effect and ±100 for the full control effect; nearly all actives have a fitted effect of over 50% in size
ASSAY_CONDITIONS: RealTime-Glo luminescence; active compounds read low
Source text: U.S. Tox21 Program National Center for Advancing Translational Sciences [NCATS] NIH Chemical Genomics Center [NCGC] U.S. Environmental Protection Agency [EPA] National Institutes of Environmental Health Sciences [NIEHS] National Toxicology Program [NTP] U.S. Food and Drug Administration [FDA] Tox21 Assay Overview: Measure of cell viability is critical in the cell-base assay. Analysis of cell viability is necessary for the characterization of cell responses to cytotoxic drugs and environmental stress. […]
Results filed as inconclusive are left out.

# MOLECULE, max response / %
measured = [
    ("CC(C)(C)c1ccc(CCOc2ncnc3ccccc23)cc1", 3.46),
    ("O=S(=O)(c1ccccc1)c1ccccc1", 1.49),
    ("CC(C)c1ccc(NC(=O)N(C)C)cc1", 3.89),
    ("CC[N+]1(C)CCCC(OC(=O)C(O)(c2ccccc2)c2ccccc2)C1 (configuration not stated)", 1.3),
    ("CC(=O)OC(c1ccccc1)C(Cl)(Cl)Cl (configuration not stated)", -15.9),
    ("C1CS1", 12),
    ("Cc1ccc2c(C)cccc2c1", 4.4),
    ("Cc1ncc(C[n+]2csc(CCO)c2C)c(N)n1", -4.98),
    ("CCOP(=S)(OCC)Oc1ccc(S(C)=O)cc1 (configuration not stated)", 6.56),
    ("O=C(N/N=C/c1ccc([N+](=O)[O-])o1)c1cc([N+](=O)[O-])cc([N+](=O)[O-])c1O", 8.45),
    ("C[N+](C)(C)CC1CO1 (configuration not stated)", 5.73),
    ("CCCCC1C(=O)NC(=O)N(C2CCCCC2)C1=O (configuration not stated)", -0.655),
    ("CCOP(=O)(SC(C)CC)N1CCSC1=O (configuration not stated)", 15),
    ("CCOC(=O)NC(O)C(Cl)(Cl)Cl (configuration not stated)", 7.58),
    ("COC(=O)C1(O)c2ccccc2-c2ccccc21", -22.2),
    ("C=CC(=O)OCC", -11.3),
    ("CCC1(CC)C(=O)NC(=O)NC1=O", 0.988),
    ("C=C(Cl)Cl", 8.47),
    ("CCCCC(CC)CO[N+](=O)[O-] (configuration not stated)", -1.82),
    ("FC(F)OC(F)(F)C(F)Cl (configuration not stated)", 8.01),
    ("O=C(Cc1ccccc1)OCCc1ccccc1", 2.91),
    ("CN1C(=O)CN=C(c2ccccc2)c2cc([N+](=O)[O-])ccc21", -12),
    ("CCCBr", -3.27),
    ("O=C(Cc1ccccc1)c1ccccc1", 4.41),
    ("CCC1(CCC(C)C)C(=O)NC(=O)NC1=O", -4.01),
    ("CC(Oc1cccc(Cl)c1)C(=O)O (configuration not stated)", 9.01),
    ("CC(C)(C)OOC(C)(C)CCC(C)(C)OOC(C)(C)C", 9.43),
    ("CCOC(C(=O)OCCN(C)C)(c1ccccc1)c1ccccc1", -21.4),
    ("CNC(=O)Oc1cccc(N=CN(C)C)c1", 7.04),
    ("C1CCNCC1", 0.2),
    ("C=CC(=O)NC(C)(C)CC(C)=O", 3.92),
    ("O=S(=O)(Cl)Cl", 15.4),
    ("CCCCCl", 1.53),
    ("Cc1cccc(C)c1NC1=NCCCS1", 0.136),
    ("N#CC(C#N)=Cc1ccc(O)c(O)c1", -6.83),
    ("O=CC=O", 2.31),
    ("CN(C)N", 6.16),
]
